system: Beet Armyworm (Spodoptera exigua); assay: Bioassay on Beet Armyworm (BAW), 128-well diet tray assay; type: in vivo; details: percent mortality of second instar larvae, 50 μg/cm^2 on artificial diet, five to seven days, 25° C.; Table 3
measured.quantity: BAW Rating

{"columns": ["compound", "BAW Rating"],
 "data": [
  ["O=C(NC1CS(=O)(=O)C1)c1ccc(/C=C/C(c2cc(Cl)cc(Cl)c2)C(F)(F)F)cc1F (centres unmarked)", "A (50-100)"],
  ["Cc1cc(/C=C/C(c2cc(Cl)c(Cl)c(Cl)c2)C(F)(F)F)ccc1C(=O)NC(C)(C)c1ccccn1 (centres unmarked)", "A (50-100)"],
  ["Cc1cc(/C=C/C(c2ccc(Cl)c(Cl)c2)C(F)(F)F)ccc1C(=O)NCc1ccc(Cl)nc1 (centres unmarked)", "A (50-100)"],
  ["N#Cc1cc(/C=C/C(c2cc(Cl)c(F)c(Cl)c2)C(F)(F)F)ccc1-n1cncn1 (centres unmarked)", "A (50-100)"],
  ["O=C(NCc1ccc(Cl)nc1)c1ccc(/C=C/C(c2cc(Cl)c(F)c(Cl)c2)C(F)(F)F)cc1Br (centres unmarked)", "A (50-100)"]
]}

[ask] May I ask what BAW Rating has been recorded for Cc1cc(/C=C/C(c2cc(Cl)cc(Cl)c2)C(F)(F)F)ccc1C(=O)NCc1cncnc1 (centres unmarked) ?
[reply] A (50-100)

[ask] May I ask what BAW Rating has been recorded for O=C(NCc1ccc(Cl)nc1)c1ccc(/C=C/C(c2cc(Cl)c(Cl)c(Cl)c2)C(F)(F)F)cc1Cl (centres unmarked) ?
[reply] A (50-100)

[ask] May I ask what BAW Rating has been recorded for C=CCNC(=O)CNC(=O)c1ccc(/C=C/C(c2cc(Cl)c(Cl)c(Cl)c2)C(F)(F)F)cc1Br (centres unmarked) ?
[reply] A (50-100)

----------
system: Beet Armyworm (Spodoptera exigua); assay: Bioassay on Beet Armyworm (BAW), 128-well diet tray assay; format: in vivo; conditions: percent mortality of second instar larvae, 50 μg/cm^2 on artificial diet, five to seven days, 25° C.; Table 3
measured.quantity: BAW Rating

In the examples that follow, each entry is paired with its recorded BAW Rating.
{"columns": ["compound", "experimental.result"],
 "data": [
  ["FC(F)(F)C(/C=C/c1ccc(-n2cncn2)cc1)c1cc(Cl)cc(Cl)c1 (stereo not shown)", "A (50-100)"],
  ["Cc1cc(/C=C\\C(c2cc(Cl)cc(Cl)c2)C(F)(F)F)ccc1C(=O)NCC(=O)NC1CC1 (stereo not shown)", "A (50-100)"],
  ["CS(=O)(=O)CCC(=O)NCc1ccc(/C=C/C(c2cc(Cl)c(Cl)c(Cl)c2)C(F)(F)F)cc1Cl (stereo not shown)", "A (50-100)"],
  ["Cc1cc(/C=C/C(c2cc(Cl)cc(Cl)c2)C(F)(F)F)ccc1C(=O)NCc1ccccc1F (stereo not shown)", "A (50-100)"],
  ["FC(F)(F)C(/C=C/c1ccc(CNC(=S)C2CC2)c(Cl)c1)c1cc(Cl)c(Cl)c(Cl)c1 (stereo not shown)", "A (50-100)"],
  ["Cc1cc(/C=C/C(c2cc(Cl)cc(Cl)c2)C(F)(F)F)ccc1C(=O)NCC1CCCO1 (stereo not shown)", "A (50-100)"],
  ["Cc1cc(/C=C/C(c2cc(Cl)c(F)c(Cl)c2)C(F)(F)F)ccc1C(=O)NCc1ccnc(Cl)c1 (stereo not shown)", "A (50-100)"],
  ["CN(C)C(=O)NCc1ccc(/C=C/C(c2cc(Cl)c(Cl)c(Cl)c2)C(F)(F)F)cc1Cl (stereo not shown)", "A (50-100)"]
]}

[ask] May I ask what BAW Rating has been recorded for O=C(CNC(=O)c1ccc(/C=C/C(c2cc(Cl)c(F)c(Cl)c2)C(F)(F)F)cc1Br)NCC(F)(F)F (stereo not shown) ?
[reply] A (50-100)

[ask] May I ask what BAW Rating has been recorded for Cc1cc(/C=C/C(c2cc(Cl)cc(Cl)c2)C(F)(F)F)ccc1C(=O)NNc1ccccc1F (stereo not shown) ?
[reply] A (50-100)

These measurements were taken from patent US9510592B2.
